# subjectOfTest: GHSR1a (Homo sapiens, UniProt Q92847)
# Sequence (Q92847 whole entry): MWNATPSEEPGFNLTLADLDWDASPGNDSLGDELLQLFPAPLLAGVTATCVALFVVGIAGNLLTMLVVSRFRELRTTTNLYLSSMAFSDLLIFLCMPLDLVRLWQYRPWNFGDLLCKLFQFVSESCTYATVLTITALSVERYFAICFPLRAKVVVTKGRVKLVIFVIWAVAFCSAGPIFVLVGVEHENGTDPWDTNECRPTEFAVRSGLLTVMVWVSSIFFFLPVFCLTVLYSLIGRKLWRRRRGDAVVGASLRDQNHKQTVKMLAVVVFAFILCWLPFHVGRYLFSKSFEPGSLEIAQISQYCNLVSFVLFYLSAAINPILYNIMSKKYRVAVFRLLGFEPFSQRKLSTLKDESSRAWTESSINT
# procedureDetails: Calcium FLIPR assay, GHSR-1a antagonism (reduction of ghrelin response)
# setupConditions: HEK293/GHSR1a cells, ghrelin 10 nM
observationType: IC50 (nM)

Example entries begin here.
[
  {
    "compound": "CN1CCC(N(C)C(=O)NC(CO)c2ccc(-c3cnccn3)c(Cl)c2Cl)CC1 (stereo not drawn)",
    "observationType": "IC50",
    "observed": 300
  },
  {
    "compound": "COC(=O)c1ccc(CN(C(=O)NC(C)c2ccc(-c3cccnc3)c(Cl)c2Cl)C2CCN(C)CC2)cc1 (stereo not drawn)",
    "observationType": "IC50",
    "observed": 9
  },
  {
    "compound": "CC(NC(=O)N(C)C1CCN(C)CC1)c1ccc(-c2cncc(F)n2)c(Cl)c1Cl (stereo not drawn)",
    "observationType": "IC50",
    "observed": 4
  },
  {
    "compound": "C[C@@H](NC(=O)N(C)C1CCN(C)CC1)c1ccc(-c2cnccn2)c(Cl)c1Cl",
    "observationType": "IC50",
    "observed": 94
  },
  {
    "compound": "CC(NC(=O)N(C)C1CCN(C)CC1)c1ccc(-c2ccc3[nH]ccc3c2)c(Cl)c1Cl (stereo not drawn)",
    "observationType": "IC50",
    "observed": 40
  },
  {
    "compound": "CC(NC(=O)N(C)C1CCN(C)CC1)c1ccc(OC2CC2)c(Cl)c1Cl (stereo not drawn)",
    "observationType": "IC50",
    "observed": 91
  },
  {
    "compound": "CC(NC(=O)N(C)C1CCN(C)CC1)c1ccc(-c2cnc(C3CC3)nc2)c(Cl)c1Cl (stereo not drawn)",
    "observationType": "IC50",
    "observed": 65
  },
  {
    "compound": "CC(NC(=O)N(C)C1CCN(C)CC1)c1ccc(NC2CC2)c(Cl)c1Cl (stereo not drawn)",
    "observationType": "IC50",
    "observed": 170
  }
]

[A] COc1cncc(-c2ccc(C(C)NC(=O)N(C)C3CCN(C)CC3)c(Cl)c2Cl)c1 (stereo not drawn)
[B] CC(=O)c1ccsc1-c1ccc(C(C)NC(=O)N(C)C2CCN(C)CC2)c(Cl)c1Cl (stereo not drawn)
Q) In terms of reported IC50, does A or B have the smaller number? Record your answer as the label of the chosen record.
A) B
(B: 3 nM, A: 6 nM)

* * *

# subjectOfTest: GHSR1a (Homo sapiens)
# Construct: expressed in transfected cells; host or cells: HEK293
# procedureDetails: Calcium FLIPR assay, GHSR-1a agonism
# Format: cell-based
# setupConditions: HEK293/GHSR1a cells
pEC50: −log10 of the molar value.
Below is a list of entries, each paired with its recorded pEC50 value.

[
  {
    "molecule": "CC(NC(=O)N(C)C1CCN(C)CC1)c1ccc(-c2cnc(CO)cn2)c(Cl)c1Cl (stereo not shown)",
    "pEC50": 6.53
  },
  {
    "molecule": "CC(NC(=O)N(C)C1CCN(C)CC1)c1ccc(-c2nccnc2F)c(Cl)c1Cl (stereo not shown)",
    "pEC50": "< 4.52"
  },
  {
    "molecule": "COC(=O)C(NC(=O)N(C)C1CCN(C)CC1)c1ccc(-c2cncnc2)c(Cl)c1Cl (stereo not shown)",
    "pEC50": "< 4.52"
  },
  {
    "molecule": "CC(NC(=O)N(C)C1CCN(C)CC1)c1ccc(C#Cc2cncnc2)c(Cl)c1Cl (stereo not shown)",
    "pEC50": "< 4.52"
  },
  {
    "molecule": "CC(NC(=O)N(C)C1CCN(C)CC1)c1ccc(-c2cncc(N)n2)c(Cl)c1Cl (stereo not shown)",
    "pEC50": "< 4.52"
  }
]

Q) Need pEC50 of COCCc1cncc(-c2ccc(C(C)NC(=O)N(C)C3CCN(C)CC3)c(Cl)c2Cl)c1 (stereo not shown) , thanks.
A) < 4.52

Q) Tell me the measured pEC50 of CON(C(=O)NC(C#N)c1ccc(-c2cncnc2)c(Cl)c1Cl)C1CCN(C)CC1 (stereo not shown) , please.
A) < 4.52

Q) # lookup: pEC50 of CC(NC(=O)N(C)C1CCN(C)CC1)c1ccc(-c2cncc(-c3ccoc3)c2)c(Cl)c1Cl (stereo not shown)
A) < 4.52

Q) What value of measured pEC50 is listed for CN1CCC(N(C)C(=O)NC(C#N)c2ccc(-c3cncnc3)c(Cl)c2Cl)CC1 (stereo not shown) ?
A) < 4.52

Q) Bench note: what pEC50 did CC(NC(=O)N(C)C1CCN(C)CC1)c1ccc(-c2ccc(C=O)s2)c(Cl)c1Cl (stereo not shown) [Compound H0651] show?
A) 7.96

Q) # pEC50 lookup, item COC(=O)c1ccc(CN(C(=O)NC(C)c2ccc(-c3cccnc3)c(Cl)c2Cl)C2CCN(C)CC2)cc1 (stereo not shown)
A) < 4.52

Q) pEC50 lookup needed for CC(NC(=O)N(C)C1CCN(C)CC1)c1ccc(CC#N)c(Cl)c1Cl (stereo not shown) , thanks.
A) 8.05

Q) Look up pEC50 for this molecule: CC(NC(=O)N(C)C1CCN(C)CC1)c1ccc(C=O)c(Cl)c1Cl (stereo not shown)
A) < 4.52

Q) Recorded pEC50 for COc1cncc(-c2ccc(C(C)NC(=O)N(C)C3CCN(C)CC3)c(Cl)c2Cl)n1 (stereo not shown) , please?
A) < 4.52

Q) Param item = CC(NC(=O)N(C)C1CCN(C)CC1)c1ccc(-c2cnc3[nH]ccc3c2)c(Cl)c1Cl (stereo not shown) ; retrieve measured pEC50.
A) 7.42
